Tested on: P12-Ichikawa
Test: cell viability relative to DMSO control; higher = less cytotoxic
Details: RPMI 5 mM glucose + 10% FBS; 48 h; 15.4 µM
Assay readout: cell viability (%)

1) Cc1cc(Nc2ncc3c(n2)N(C)C(=O)N(c2cc(NC(=O)c4cccc(C(F)(F)F)c4)ccc2C)C3)n(C)n1	52.5
2) Nc1nc(F)nc2c1ncn2[C@@H]1O[C@H](COP(=O)(O)O)[C@@H](O)[C@@H]1O	110
3) O=C(c1cncc(Br)c1)N1CCC(N2CCCC2)CC1	92.5
4) O=C(O)c1ccc(O)c2ncc(N3CCOCC3)cc12	85.2
5) CC1(C)CC\C2=C(/O1)C3=C(C=CC=C3)C(=O)C2=O	90.5
6) COc1c(Cl)cc2c([nH]c3cnccc32)c1NC(=O)c1cccnc1C	105
7) Cc1ccc(C(=O)Nc2cccc(C(F)(F)F)c2)cc1Nc1nc(-c2cccnc2)nc2c1cnn2C	78.8
8) C=CC(=O)Nc1cc2c(Nc3ccc(F)c(Cl)c3)ncnc2cc1C#CC(C)(C)N1CCN(C)CC1	5.56
9) CCCN[C@H]1CCc2nc(N)sc2C1	114
10) C[C@H](CCC(=O)O)[C@H]1CC[C@H]2[C@@H]3[C@H](O)C[C@@H]4C[C@H](O)CC[C@]4(C)[C@H]3CC[C@]12C	89.8
11) Nc1ccc(C(=O)Nc2cccc(-c3nc(N4CCOCC4)c4oc5ncccc5c4n3)c2)cn1	94.7
12) COc1cc(NCc2ccc3nc(N)nc(N)c3c2C)cc(OC)c1OC	58.9

* * *

Tested on: NOMO1
Assay: cell viability relative to DMSO control; higher = less cytotoxic
Details: RPMI 5 mM glucose + 10% FBS; 48 h; 0.0632 µM
Assay readout: cell viability (%)

1) CN(C)CCCC1(c2ccc(F)cc2)OCc2cc(C#N)ccc21 (stereo not given)	98.5
2) Cc1ccc2nc(NCCN)c3ncc(C)n3c2c1	98.1
3) Cc1cn2cc(C(=O)N(C)CCO)cc(N[C@@H]3CCOc4cccc(C)c43)c2n1	105
4) CC(=O)SC[C@@H](C)C(=O)N1CCC[C@H]1C(=O)N[C@@H](Cc1ccccc1)C(=O)O	94.1
5) CNC(=O)c1ccc2c(c1)NC(=O)/C2=C(\Nc1cccc(CN(C)C)c1)c1ccccc1	93.1

* * *

System: SEM cells
Experiment: cell viability relative to DMSO control; higher = less cytotoxic
Settings: RPMI 5 mM glucose + 10% dialyzed FBS; 48 h; 15.4 µM
Assay readout: cell viability (%)

1. Clc2cccc(Cl)c2\N=C1/NCCN1	117
2. CN(C)C/C=C/C(=O)Nc1ccc(C(=O)Nc2cccc(Nc3ncc(Cl)c(-c4c[nH]c5ccccc45)n3)c2)cc1	4.42
3. c1cc(-c2cnn3cc(-c4ccc(OCCN5CCCCC5)cc4)cnc23)ccn1	42.2
4. C[C@@H]1[C@H]\2[C@H](O)[C@H]3[C@H](N(C)C)\C(=C(C(N)=O)/C(=O)[C@@]3(O)\C(=C2C(=O)C4=C(O)C=CC=C14)O)O	89.9
5. COC1=CC=C(C=C1)/C2=C(O)/C(=O)C3=C(O)C=C(O)C(=C3O2)CC=C(C)C	121
6. C[C@@H]1CC[C@@]2(CC[C@]3(C)\C(=C/C[C@@H]4[C@@]5(C)CC[C@H](O)C(C)(C)[C@@H]5CC[C@@]34C)[C@@H]2[C@H]1C)C(O)=O	118
7. CCC(CCCC)COC(=O)C(\C#N)=C(\c1ccccc1)c2ccccc2 (stereo not drawn)	106
8. CN(C)c1nc(Cc2ccc(NC(=O)c3ccc(C(F)(F)F)cc3)cc2)nc(N(C)C)c1CC(=O)O	105
